Ref: patent US10189843B2

Each entry below carries its measured IC50, system: Human autotaxin enzyme (Homo sapiens, UniProt Q13822).

Sample CCCCC1CN(C2CCN(CC(F)(F)F)C2=O)C(=O)c2cc(-c3ccc(Cl)cc3)nn21 (stereo not drawn) ; IC50 observed: 10 to 100 nM

// IC50 lookup, compound = CCCCC1CN(Cc2ccc(C#N)cc2)C(=O)c2cc(-c3ccc(C#N)cc3)nn21 (stereo not drawn) , result: 10 to 100 nM

Lab book: IC50 of CCCCCC1CN(Cc2ccccc2CS(=O)(=O)c2ccccc2)C(=O)c2cc(-c3ccc(Cl)cc3)nn21 (stereo not drawn) noted as ≥ 1000 nM

###

propertyName: IC50

# value of IC50, Human autotaxin enzyme (Homo sapiens), item CCCCCC1CN(CC(=O)N2CCC[C@H]2C)C(=O)c2cc(-c3ccc(Cl)cc3)nn21 (stereo partly shown) = 100 to 1000 nM

GET /values?item= `CC(=O)Nc1cc(C(F)(F)F)ccc1-c1cc2n(n1)[C@@H](C)CN(Cc1ccc(C#N)cc1)C2=O` &system= Human autotaxin enzyme (Homo sapiens) returns IC50: 10 to 100 nM

Summary: CCCCCC1CN(CC(=O)N2CCC(=O)CC2)C(=O)c2cc(-c3ccc(Cl)cc3)nn21 (stereo not shown) , Human autotaxin enzyme (Homo sapiens), IC50 = 10 to 100 nM

// compound CCCCC1CN(Cc2ccc(C#N)cc2)C(=O)c2cc(-c3ccc(Cl)cc3)nn21 (stereo not shown) , assay Human autotaxin enzyme (Homo sapiens), IC50 value: 10 to 100 nM

Tested on Human autotaxin enzyme (Homo sapiens), the item `C[C@H]1CN(CC(=O)N(C)CCC#N)C(=O)c2cc(-c3ccc(C#N)cc3NC(=O)C3CC3)nn21` showed IC50 equal to < 10 nM

Measured IC50 (Human autotaxin enzyme (Homo sapiens)), entry CCCCCC1CN(CC(=O)N2CCC(Cc3ccccc3)C2)C(=O)c2cc(-c3ccc(Cl)cc3)nn21 (stereo not shown) : 100 to 1000 nM

The observed IC50 for CCCOCC1CN(CC(=O)N2CCC(C(=O)O)CC2)C(=O)c2cc(-c3ccc(Cl)cc3)nn21 (stereo not shown) when tested with Human autotaxin enzyme (Homo sapiens) stands at < 10 nM

Result for N#Cc1ccc(CN2CC(COCC(F)(F)C(F)F)n3nc(-c4ccc(Cl)cc4)cc3C2=O)cc1 (stereo not shown) , tested on Human autotaxin enzyme (Homo sapiens), IC50: 10 to 100 nM

Noted IC50 for CCCCC1CN(CC2CNC(=O)O2)C(=O)c2cc(-c3ccc(Cl)cc3)nn21 (stereo not shown) , tested on Human autotaxin enzyme (Homo sapiens): 10 to 100 nM

Item `CCOC(=O)C1CCN(C(=O)CN2CC(C)(C)n3nc(-c4ccc(Cl)cc4)cc3C2=O)CC1` ; assay system Human autotaxin enzyme (Homo sapiens); IC50 reported as ≥ 1000 nM

Noted IC50 for CCCCCC1CN(CC(=O)N(C)CC)C(=O)c2cc(-c3ccc(Cl)cc3)nn21 (stereo not shown) , tested on Human autotaxin enzyme (Homo sapiens): 100 to 1000 nM

Summary: `COCC(=O)Nc1cc(C#N)ccc1-c1cc2n(n1)[C@@H](C)CN(CC(=O)N(C)CCC#N)C2=O` , Human autotaxin enzyme (Homo sapiens), IC50 = < 10 nM

Entry CCCCC1CN(CN)C(=O)c2cc(-c3ccc(Cl)cc3)nn21 (stereo not shown) , Human autotaxin enzyme (Homo sapiens) data, IC50 value: ≥ 1000 nM

The compound CCCCCC1CN(CC(=O)Nc2cccc(CC(=O)O)c2)C(=O)c2cc(-c3ccc(Cl)cc3)nn21 (stereo not shown) , when measured on Human autotaxin enzyme (Homo sapiens), yielded IC50 of 10 to 100 nM

Given the compound `C[C@H]1CN(Cc2ccc(C#N)cc2)C(=O)c2cc(-c3c(N)cc(Cl)cc3CO)nn21` and test system Human autotaxin enzyme (Homo sapiens), the measured IC50 is 100 to 1000 nM

Short answer on Human autotaxin enzyme (Homo sapiens) for CCCCCC1CN(CC(=O)Nc2ccc(CCC(=O)O)cc2)C(=O)c2cc(-c3ccc(Cl)cc3)nn21 (stereo not shown) , IC50: 100 to 1000 nM
